Reported percent inhibition of human Factor 11 mRNA relative to untreated control cells values are given for each entry in this list.
- Tested on: human Factor 11 mRNA
- MEASUREMENT_NOTES: Dose-dependent inhibition of human Factor 11 in cyano primary hepatocytes, electroporation (Example 6)
- Format: cell-based
- TEST_CONTEXT: 6.7 nM, ~16 hours
Number only, in %; omit the unit.

As a guide, the following entries are already answered.
- SUBSTANCE: "416838 (antisense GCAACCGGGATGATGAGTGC; 5-10-5 gapmer, further chemistry not given here) [compound 416838]"
  TARGET: "human Factor 11 mRNA"
  UNIT_LABEL: "%"
  OBS_VALUE: 21
- SUBSTANCE: "416826 (antisense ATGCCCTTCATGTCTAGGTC; 5-10-5 gapmer, further chemistry not given here) [compound 416826]"
  TARGET: "human Factor 11 mRNA"
  UNIT_LABEL: "%"
  OBS_VALUE: 34
- SUBSTANCE: "417002 (antisense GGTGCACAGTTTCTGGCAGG; 2-13-5 gapmer chemistry, further chemistry not given here) [compound 417002]"
  TARGET: "human Factor 11 mRNA"
  UNIT_LABEL: "%"
  OBS_VALUE: 28
- SUBSTANCE: "416825 (antisense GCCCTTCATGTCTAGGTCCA; 5-10-5 gapmer, further chemistry not given here) [compound 416825]"
  TARGET: "human Factor 11 mRNA"
  UNIT_LABEL: "%"
  OBS_VALUE: 51

Consider now this further substance.
According to the records, this substance 416864 (antisense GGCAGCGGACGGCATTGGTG; 5-10-5 gapmer, further chemistry not given here) [compound 416864] displays percent inhibition of human Factor 11 mRNA relative to untreated control cells of 15

Data provenance is patent US20230263822A1.
